System: HL-60
Experiment: Cytotoxicity against human HL60 cells assessed as decrease in cell viability after 48 hrs by MTS assay
Assay type: functional, cell-based
Details: HL-60, 48 h
REPORTED_ENDPOINT: pIC50
# pIC50: negative log10 of molar concentration; output just the value

[[record]]
smi = "C=C1[C@@H]([C@H](C)C[C@H]2C=C(C)C(=O)O2)CC[C@@]2(C)C3=CC[C@H]4C(C)(C)[C@H](O)CC[C@]4(C)[C@@H]3C[C@@H]12"
value_observed = 4.98


# input for lookup
# get_value(readout='pIC50', item= C=C1[C@@H]([C@H](C)CC(=O)/C=C(\C)C(=O)O)CC[C@@]2(C)C3=CC[C@H]4C(C)(C)[C@H](OC(C)=O)CC[C@]4(C)[C@@H]3C[C@@H]12 ) 5.51
